Cited source: ChEMBL document CHEMBL3525917

PROCEDURE DETAILS: Tmax in Sprague-Dawley rat at 10 mg/kg, po
Format: ADME, organism-based
Design: dose 10 mg/kg, route oral
MEASUREMENT SETUP: in vivo
ENDPOINT NAME: Tmax

INSERT INTO measurements (compound, result) VALUES
  ('Cc1nn(C[C@H](F)CN2C3CCC2CC(OCc2cccc(F)c2)C3)c(=O)n1C (stereo partly specified)', '15 min');

* * *

PROCEDURE DETAILS: Blood clearance in Sprague-Dawley rat
Format: ADME, organism-based
ENDPOINT NAME: clearance (mL/min/kg)

INSERT INTO measurements (molecule, recorded_number) VALUES
  ('Cc1nn(C[C@H](F)CN2C3CCC2CC(OCc2cccc(F)c2)C3)c(=O)n1C (stereo partly specified)', 60);
